Test: Pharmacokinetic study (PK), i.v. in rats
Assay type: in vivo
Conditions: rat, blood, iv, 2 mg/kg i.v., mean, read-out: CL obs (converted)
measure: clearance (mL/min/kg)
Reply numerically in mL/min/kg, unit not repeated.

GET /values?readout=clearance&item= O=C(Nc1ccc([N+](=O)[O-])cc1Cl)c1cc(Cl)ccc1OC1OC(CO)C(O)C(O)C1O (stereo not shown) [MPT0L167]
59.1
